Biological target: Retinoic acid receptor beta (Homo sapiens)
Assay: Inhibition of transactivation activity of Gal4-LBD fused human RARbeta (169 to 448) transfected in atRA-stimulated african green monkey CV1 cells at 4 uM after 6 hrs by Dual-light chemiluminescent assay
Assay type: cell-based
Conditions: CV-1
Calls of active or inactive are those of the source. The calls are words filed in the database; no cut-off is given here.
observationType: Activity

>>> df
                                 smilescode  observationtype  observedresult
0  Cc1cc(O)c(C23CC4CC(CC(C4)C2)C3)cc1-c1ccc2cc(C(=O)O)ccc2c1Cl         Activity        inactive
1  Cc1cc(O)c(C23CC4CC(CC(C4)C2)C3)cc1-c1ccc(CC(=O)O)cc1Cl         Activity        inactive
2  COCCOCOc1cc(C)c(-c2ccc(CC(=O)O)cc2Cl)cc1C12CC3CC(CC(C3)C1)C2         Activity        inactive
